- Tested on: cocaine esterase
- Assay type: biochemical, Pseudomonas maltophilia MB11L
- run-conditions: 1 mM inhibitor, preincubated 30° C. 10 min; 2 mM cocaine; 0.9 U/ml=100% activity
Decide by % ACTIVITY RELATIVE TO CONTROL: equal to or exceeding 80% means label 1, less means label 0.

compound="O=C(O)c1cc[c]([Hg][OH])cc1 [pHMB, para-hydroxymercuribenzoate]" group_label="label 1"
compound="O=S(=O)(F)Cc1ccccc1 [PMSF, phenylmethylsulphonyl fluoride]" group_label="label 0"
compound="O=C(O)c1ccccc1 [Benzoate, benzoate]" group_label="label 1"
compound="CNC(=O)Oc1ccc2c(c1)[C@]1(C)CCN(C)[C@@H]1N2C [Eserine, eserine]" group_label="label 1"
